// data source = ChEMBL document CHEMBL1149056

Can you tell me EC50 for the items I'm about to list?
# Tested on: A549
# runDescription: Cytotoxicity against human A549 cells after 7 days
# Type: functional
# condition: Homo sapiens, A549, 168 h; read-out: ED50 (the source's name)
Include the unit after the number when you answer.

Some solved cases for reference:
CCCCCCCCCCCC[C@@H](O)[C@H]1CC[C@H]([C@H](O)CCCCCCC(O)CCC[C@@H](O)CC2=C[C@H](C)OC2=O)O1 (stereo not given in full) ... 42.6 ng/mL
CCCCCCCCCCCCCCC(O)C(O)CC[C@H](O)[C@H]1CC[C@H](CCCCC[C@@H](O)CC2=C[C@H](C)OC2=O)O1 (stereo not given in full) ... 4.7 ng/mL

# batch size: 3; output EC50 per entry
1. COc1cccc2c1C(=O)c1c(O)c3c(c(O)c1C2=O)C[C@@](O)(C(=O)CO)C[C@@H]3O[C@H]1C[C@H](N)[C@H](O)[C@H](C)O1
2. CCCCCCCCCCCCCC[C@@H](O)[C@H](O)CC[C@H](O)[C@@H]1CC[C@@H](CCCCC[C@@H](O)CC2=C[C@H](C)OC2=O)O1
3. CCCCCCCCCCCC[C@H](O)[C@@H]1CC[C@@H]([C@@H](O)CCCCCCC(O)CCCCC[C@@H](O)CC2=C[C@H](C)OC2=O)O1 (stereo not given in full)

["1.1 ng/mL", "250 ng/mL", "7.72 ng/mL"]

* * *

# System: MCF7
# runDescription: Cytotoxicity against human MCF7 cells after 7 days
# Assay type: functional
# condition: Homo sapiens, MCF7, 168 h; read-out: ED50 (the source's name)
endpointLabel: EC50 (µg/mL)
Answers are plain numbers, in µg/mL.

Some solved cases for reference:
COc1cccc2c1C(=O)c1c(O)c3c(c(O)c1C2=O)C[C@@](O)(C(=O)CO)C[C@@H]3O[C@H]1C[C@H](N)[C@H](O)[C@H](C)O1 ... 0.0228
CCCCCCCCCCCC[C@H](O)[C@@H]1CC[C@@H]([C@@H](O)CCCCCCC(O)CCCCC[C@@H](O)CC2=C[C@H](C)OC2=O)O1 (stereo partly drawn) ... 0.165

Could you now consider this next molecule?
Recorded result, CCCCCCCCCCCCCCC(O)C(O)CC[C@H](O)[C@H]1CC[C@H](CCCCC[C@@H](O)CC2=C[C@H](C)OC2=O)O1 (stereo partly drawn) , EC50: 0.603

* * *

# runDescription: Toxicity against brine shrimp larvae
# Assay type: organism-based
# condition: artemia, in vivo
endpointLabel: log10(LC50) (log10 of the value in µg/mL)
Heads up: the numbers are on a log10 scale; they represent LC50 in µg/mL.

CCCCCCCCCCCCCC[C@@H](O)[C@H](O)CC[C@H](O)[C@@H]1CC[C@@H](CCCCC[C@@H](O)CC2=C[C@H](C)OC2=O)O1 [GIGANTETROCIN A] ... 0.15
CCCCCCCCCCCC[C@@H](O)[C@H]1CC[C@H]([C@H](O)CCCC[C@H](O)CCCCC[C@@H](O)CC2=CC(C)OC2=O)O1 (stereo not given in full) [ANNONACIN] ... -0.64
CCCCCCCCCCCCCC[C@@H](O)[C@H]1CC[C@H]([C@H](O)CCCCCCC(O)CCC[C@@H](O)CC2=C[C@H](C)OC2=O)O1 (stereo not given in full) [XYLOPIACIN] ... -0.31
CCCCCCCCCCCC[C@@H](O)[C@H]1CC[C@H]([C@H](O)CCCCCCC(O)CCC[C@@H](O)CC2=C[C@H](C)OC2=O)O1 (stereo not given in full) [XYLOPIANIN] ... -0.48

Could you now consider this next molecule?
Recorded result, CCCCCCCCCCCCCC[C@@H](O)[C@H]1CC[C@H]([C@H](O)CCCCC(O)CCCCC[C@@H](O)CC2=C[C@H](C)OC2=O)O1 (stereo not given in full) [XYLOMATICIN] , log10(LC50): -0.96

* * *

Can you tell me EC50 for the items I'm about to list?
# Tested on: MCF7
# runDescription: Cytotoxicity against human MCF7 cells after 7 days
# Assay type: functional
# condition: Homo sapiens, MCF7, 168 h; read-out: ED50 (the source's name)
Numbers only, in µg/mL.

Some solved cases for reference:
CCCCCCCCCCCC[C@@H](O)[C@H]1CC[C@H]([C@H](O)CCCCCCC(O)CCC[C@@H](O)CC2=C[C@H](C)OC2=O)O1 (stereo partly drawn) [XYLOPIANIN] ... 18.5
CCCCCCCCCCCCCC[C@@H](O)[C@H](O)CC[C@H](O)[C@@H]1CC[C@@H](CCCCC[C@@H](O)CC2=C[C@H](C)OC2=O)O1 [GIGANTETROCIN A] ... 0.63

Could you now consider this next molecule?
Recorded result, CCCCCCCCCCCC[C@@H](O)[C@H]1CC[C@H]([C@H](O)CCCC[C@H](O)CCCCC[C@@H](O)CC2=CC(C)OC2=O)O1 (stereo partly drawn) [ANNONACIN] , EC50: 0.0024
